Below: a set of entries, each annotated with reported inhibition at 10 µM.
target: BTK (Homo sapiens); assay: biochemical; details: read-out: BTK inhibition (%), 0.75 uM BTK, […] probe 3l, 15 min preincubation
Your answer is read as %, so omit the unit and give the number.

Examples with their reported inhibition at 10 µM follow.
{"compound": "N#Cc1cnc(Nc2cc(NC[C@H]3CNCCO3)c(C(F)(F)F)cn2)cn1", "assay.target": "BTK (Homo sapiens)", "reading": -0.7}
{"compound": "CC(C)N(CCCNC(=O)Nc1ccc(C(C)(C)C)cc1)C[C@H]1O[C@@H](n2ccc3c(N)ncnc32)[C@H](O)[C@@H]1O", "assay.target": "BTK (Homo sapiens)", "reading": -18.5}
{"compound": "CN(C)C(=O)[C@H](O)[C@H](Cc1ccccc1)NC(=O)c1cc2cc(Cl)ccc2[nH]1", "assay.target": "BTK (Homo sapiens)", "reading": 5.4}

So what's the measured inhibition at 10 µM for this one? FC(F)(F)Oc1ccc(-c2ccc3nnc(C(F)(F)F)n3c2)cc1 7.7

----------
target: BTK (Homo sapiens, UniProt Q06187); experiment: biochemical; conditions: read-out: BTK inhibition (%), 0.75 uM BTK, […] probe 3l, 15 min preincubation
Sequence (Q06187 402-655 limits assumed): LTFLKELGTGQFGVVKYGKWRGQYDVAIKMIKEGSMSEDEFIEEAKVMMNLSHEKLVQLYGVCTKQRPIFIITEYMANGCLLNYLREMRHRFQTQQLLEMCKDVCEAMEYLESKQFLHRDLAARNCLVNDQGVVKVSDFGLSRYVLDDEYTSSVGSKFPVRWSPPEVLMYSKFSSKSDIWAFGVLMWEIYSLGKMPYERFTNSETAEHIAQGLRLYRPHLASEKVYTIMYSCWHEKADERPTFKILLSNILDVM
// inhibition at 10 µM lookup, one value per entry
Reply with just the number (in %).

// worked examples, inhibition at 10 µM included
{"compound": "C=CC(=O)N1C/C(=C\\c2ccc([N+](=O)[O-])cc2)C(=O)/C(=C/c2ccc([N+](=O)[O-])cc2)C1", "assay.target": "BTK (Homo sapiens, UniProt Q06187)", "scale.unit": "%", "reading": -15.6}
{"compound": "O=C(O)CSCC(=O)NC1CCSC1=O (stereo not drawn)", "assay.target": "BTK (Homo sapiens, UniProt Q06187)", "scale.unit": "%", "reading": -10.9}

Note: attention shifts to another entry.
Find the measured inhibition at 10 µM: item CCCCCCCCCCCCCC(=S)NCCCC[C@H](NC(=O)OCc1ccccc1)C(=O)Nc1ccccc1 , target or system BTK (Homo sapiens, UniProt Q06187). -6.2

----------
target: BTK (Homo sapiens); conditions: 0.75 uM BTK, […] probe 3l, 15 min preincubation, 10 µM, inhibitor, BTK inhibition (%)
measure.name: BTK inhibition (%)
Numbers only; they are read as %.

Examples with their reported BTK inhibition (%) follow.
{"molecule": "CC(C(=O)O)c1cccc(Oc2ccccc2)c1 (stereo not drawn) [PCM-0086452]", "assay.target": "BTK (Homo sapiens)", "scale.unit": "%", "BTK inhibition (%)": -45.1}
{"molecule": "CCOc1ccccc1OCCN[C@H](C)Cc1ccc(OC)c(S(N)(=O)=O)c1", "assay.target": "BTK (Homo sapiens)", "scale.unit": "%", "BTK inhibition (%)": 13.2}

Note: attention shifts to another entry.
Please look up its BTK inhibition (%): COc1ccc(C[C@@H](C)NC[C@H](O)c2ccc(O)c(NC=O)c2)cc1 6.9

----------
Attribute: inhibition at 10 µM
target: BTK (Homo sapiens, UniProt Q06187); assay: biochemical; conditions: read-out: BTK inhibition (%), 0.75 uM BTK, […] probe 3l, 15 min preincubation
# value in %; strip the unit string

{"compound": "O=c1[nH]c([C@@H]2CCCN2)nc2c1oc1ccc(Cl)cc12", "inhibition at 10 µM [%]": -0.9}
{"compound": "CO[C@@H](C(=O)N1Cc2[nH]nc(NC(=O)c3ccc(N4CCN(C)CC4)cc3)c2C1)c1ccccc1", "inhibition at 10 µM [%]": 85.5}
{"compound": "Clc1ccc(C(Cn2ccnc2)OCc2c(Cl)cccc2Cl)c(Cl)c1 (centres unmarked)", "inhibition at 10 µM [%]": 38.9}
{"compound": "C[C@]12C=CC(=O)N[C@@H]1CC[C@@H]1[C@@H]2CC[C@]2(C)[C@@H](C(=O)Nc3cc(C(F)(F)F)ccc3C(F)(F)F)CC[C@@H]12", "inhibition at 10 µM [%]": -4.7}
{"compound": "CO[C@@H]1[C@@H](OC(N)=O)[C@@H](O)[C@H](Oc2ccc3c(O)c(NC(=O)c4ccc(O)c(CC=C(C)C)c4)c(=O)oc3c2C)OC1(C)C", "inhibition at 10 µM [%]": 7}

Consider the compound shown here: COc1ccccc1N1CCN(CCN2C(=O)CC3(CCCC3)CC2=O)CC1 What is its recorded inhibition at 10 µM? -3.1

Item: O=C(O)c1cc(=O)[nH]c(=O)[nH]1 -11.7

Request: O=C1[C@H](CC[C@H](O)c2ccc(F)cc2)[C@@H](c2ccc(O)cc2)N1c1ccc(F)cc1 31

How about this compound: COc1cc2c(cc1OC)[C@@H](Cc1ccc(Oc3cc(C[C@@H]4c5cc(OC)c(OC)cc5CCN4C)ccc3O)cc1)N(C)CC2 -9.3

And for COc1ccc2c(c1OC)CC1c3c(cc4c(c3-2)OCO4)CCN1C (centres unmarked) ? 0.8

Cool, now O=S(=O)(O)Oc1ccc(C(c2ccc(OS(=O)(=O)O)cc2)c2ccccn2)cc1 -12.5

All figures here come from paper PMC8041284.
